experiment: Lipophilicity, logP of the compound; format: physicochemical; conditions: octanol/water
experimental_readout: logP

Here are 3 compounds together with their reported answers.
1. CCCn1c(NC(=O)Cc2ccc(OC(F)(F)F)cc2)nc2ccccc21 ... 5.6
2. CCCn1c(NC(=O)CCCc2ccccc2)nc2ccccc21 ... 5
3. CCCn1c(NC(=O)Cc2ccc(Cl)cc2)nc2ccccc21 ... 4.7

1. CCCn1c(NC(=O)Cc2ccc(Cl)cc2)nc2ccc(Br)cc21
2. CCCn1c(NC(=O)Cc2ccc(O)cc2)nc2ccccc21
Lookup: Problem: Given the entries 1 and 2 , determine which has the lower reported logP. State the label of the item chosen.
Found: 2
(2: 3.8, 1: 5.5)

---

assay: Lipophilicity, logP of the compound; format: physicochemical; details: octanol/water
experimental_readout: logP

1) CCCn1c(NC(=O)Nc2ccc(Cl)cc2)nc2ccccc21 ... 4.8

P. CCCn1c(NC(=O)Cc2ccc(OC(C)=O)cc2)nc2ccccc21
Q. CCCn1c(NC(=O)Cc2ccc(Cl)cc2)nc2c(Br)cccc21
Lookup: Problem: Given the entries P and Q , determine which has the lower reported logP. State the label of the item chosen.
Found: P
(P: 3.7, Q: 5.5)

---

assay: Selectivity index, ratio of CC50 for rat H9c2 cells assessed as reduction in cell viability to IC50 for Trypanosoma cruzi infected in rat H9c2 infected with trypomastigotes from parasite-infected monkey LLC-MK2 cells measured after 72 hrs by DRAQ5 DNA dye based microscopic imaging analysis; assay type: toxicity; details: read-out: Ratio CC50/IC50
experimental_readout: selectivity ratio at 72 h
Field format: numeric only.

Sure, the documented selectivity ratio at 72 h for CCCn1c(NC(=O)Cc2ccc(Cl)cc2)nc2ccccc21 is 40

---

assay: Cytotoxicity against rat H9c2 cells assessed as reduction in cell viability; assay type: cell-based
Each record here notes measured CC50.

1. CCCn1c(NC(=O)Cc2ccc(Cl)cc2)nc2cc(Cl)ccc21 ... 7.94 µM
2. CCCn1c(NC(=O)Cc2ccc(Cl)cc2)nc2ccc(Br)cc21 ... 13 µM
3. CCCn1c(NC(=O)CCc2ccccc2)nc2ccccc21 ... > 50 µM
4. Cn1c(NC(=O)Cc2ccc(Cl)cc2)nc2ccccc21 ... > 50 µM
5. CCCn1c(NC(=O)c2ccccc2)nc2ccccc21 ... > 50 µM

Sure, the documented CC50 for CCCn1c(NC(=O)Cc2cccc(OC)c2)nc2ccccc21 is > 50 µM

---

system: Trypanosoma brucei brucei; experiment: Antitrypanosomal activity against Trypanosoma brucei brucei Lister 427 assessed as parasite growth inhibition measured after 48 hrs by alamar blue assay; details: Lister 427, 48 h
pIC50: −log10 of the molar value.
experimental_readout: pIC50

Here are 6 compounds together with their reported answers.
1. CCCn1c(NC(=O)Cc2ccc3ccccc3c2)nc2ccccc21 ... 5.26
2. CCCn1c(NC(=O)c2ccccc2)nc2ccccc21 ... 5.42
3. CCCn1c(NC(=O)Cc2ccc(C(F)(F)F)cc2)nc2ccccc21 ... 5.35
4. CCCn1c(NC(=O)Cc2ccccc2Cl)nc2ccccc21 ... 5.64
5. CCCn1c(NC(=O)Cc2ccccc2Br)nc2ccccc21 ... 5.70
6. CCCn1c(NC(=O)Cc2ccc(-c3ccccc3)cc2)nc2ccccc21 ... 5.47

a. CCCn1c(NC(=O)Cc2ccc(Cl)cc2)nc2ccc(Br)cc21
b. CCCn1c(NC(=O)Cc2ccc(Cl)cc2)nc2cc(Cl)ccc21
c. CCCn1c(NC(=O)Cc2cccc3ccccc23)nc2ccccc21
Lookup: I would appreciate it if you could sort these 3 compounds by pIC50, starting from the smallest number. Your reply should list the labels following the order given in the request.
Found: b, c, a
(b: 5.36, c: 5.59, a: 5.82)
